B1: MGC27345 (parent)
chain: KYMPHLCQDSSGEVSCQCQLHPPR

variants of: B1; assay: protein stability index of a GFP-peptide fusion (GPS, HEK-293T) (PSI 1-6); higher = more stable; settings: c terminus: a fixed tail appended;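 note: lentivirally expressed fusions sorted by FACS into six bins by GFP to DsRed ratio, PSI derived from sequencing read proportions per bin multiplied by bin number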
Could you please report measured protein stability index for the items listed next?
In your answer, state the number alone without any accompanying words.

Qu. What protein stability index value was documented for this variant, `K1L` ?
Ans. 2.48

Qu. # protein stability index lookup, item `G12E`
Ans. 2.1

Qu. For the variant `H5G` , what protein stability index is on record?
Ans. 1.45

Qu. # get_value(readout='protein stability index', item= `V14G` )
Ans. 3.14

Qu. // query protein stability index value for entry `M3E`
Ans. 2.25

Qu. Consider the variant shown here: `V14H` What is its recorded protein stability index?
Ans. 2.48

Qu. Which protein stability index value is on record for `H5V` ?
Ans. 2.22

Qu. Could you tell me which protein stability index is on file for `S15Q` ?
Ans. 1.96

Qu. Requested read-out: protein stability index. Entry: `Q19D`
Ans. 2.25

Qu. Please report the recorded protein stability index for `M3I` .
Ans. 2.01

Qu. May I ask what protein stability index has been recorded for `P4W` ?
Ans. 1.67

Qu. Data request, read-out protein stability index, for `C16W`
Ans. 2.38

Qu. Would you kindly share the measured protein stability index for `P4V` ?
Ans. 2.81

Qu. Please give the measured protein stability index for this variant: `V14T`
Ans. 2.87

Qu. Find the recorded protein stability index belonging to `V14S` and report it.
Ans. 2.88

Qu. Report protein stability index for `D9N` please.
Ans. 1.98

Qu. Give its protein stability index value. Item: `E13K`
Ans. 2.21

Qu. Any idea what its protein stability index is? The variant is `P4H`
Ans. 1.69

Qu. Fill in: protein stability index of `P22K` is ___
Ans. 2.43

Qu. // lookup protein stability index for `P22C`
Ans. 2.47

Qu. Would you kindly share the measured protein stability index for `S11G` ?
Ans. 3.17

Qu. protein stability index lookup needed for `Y2C` , thanks.
Ans. 2.44

Data provenance: the supplement of paper PMC10567573
